// data source = patent US12187723B2

Biological target: UniProt Q9NR97
Sequence (Q9NR97 27-1041): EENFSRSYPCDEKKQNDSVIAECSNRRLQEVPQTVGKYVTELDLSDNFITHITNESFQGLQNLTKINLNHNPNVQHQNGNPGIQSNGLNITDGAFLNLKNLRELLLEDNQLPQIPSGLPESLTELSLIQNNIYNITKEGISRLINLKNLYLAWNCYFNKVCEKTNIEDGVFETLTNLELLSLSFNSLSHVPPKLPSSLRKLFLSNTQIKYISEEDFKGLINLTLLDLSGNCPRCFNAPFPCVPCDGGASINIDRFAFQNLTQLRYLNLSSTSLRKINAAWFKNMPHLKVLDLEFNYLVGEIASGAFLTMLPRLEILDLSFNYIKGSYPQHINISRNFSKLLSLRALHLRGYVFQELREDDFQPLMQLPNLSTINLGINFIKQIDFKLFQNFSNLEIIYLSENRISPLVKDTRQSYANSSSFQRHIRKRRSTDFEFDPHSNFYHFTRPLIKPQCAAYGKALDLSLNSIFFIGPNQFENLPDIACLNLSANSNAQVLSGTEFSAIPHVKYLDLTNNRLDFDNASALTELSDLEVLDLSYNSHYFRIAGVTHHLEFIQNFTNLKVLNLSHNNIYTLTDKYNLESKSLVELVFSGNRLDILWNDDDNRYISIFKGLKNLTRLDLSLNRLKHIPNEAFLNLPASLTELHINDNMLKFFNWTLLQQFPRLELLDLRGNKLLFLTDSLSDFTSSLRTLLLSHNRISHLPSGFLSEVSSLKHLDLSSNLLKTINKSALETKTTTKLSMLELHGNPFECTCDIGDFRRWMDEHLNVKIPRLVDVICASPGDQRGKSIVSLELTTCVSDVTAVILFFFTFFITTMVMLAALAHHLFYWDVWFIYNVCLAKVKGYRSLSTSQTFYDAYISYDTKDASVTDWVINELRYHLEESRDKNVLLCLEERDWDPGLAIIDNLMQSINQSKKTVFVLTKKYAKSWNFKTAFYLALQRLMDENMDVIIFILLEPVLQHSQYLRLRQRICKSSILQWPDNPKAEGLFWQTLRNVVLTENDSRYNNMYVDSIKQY
Assay: TLR8 inhibition reporter assay (HEK-Blue SEAP)
Conditions: HEK-Blue cells overexpressing human TLR8, R848 15.9 μM, 22 hour incubation
Text: TLR7/8/9 Inhibition Reporter Assays HEK-Blue™-cells (Invivogen) overexpressing human TLR7, TLR8 or TLR9 receptors were used for screening inhibitors of these receptors using an inducible SEAP (secreted embryonic alkaline phosphatase) reporter gene under the control of the IFN-β minimal promoter fused to five NF-κB and AP-1-binding sites. […]
Labelling: IC50 reported below 0.02 µM becomes Yes; at or above becomes No.

Report whether reported IC50 is lower than 0.02 µM (strictly) for CCC(CC)CN1CCC(n2c(=O)[nH]c3cc(-c4cc(OC)c5ncnn5c4)ccc32)CC1 [Example 75]
No

Report whether reported IC50 is lower than 0.02 µM (strictly) for Cc1cc2c(cc1-c1cc(C)c3ncnn3c1)[nH]c(=O)n2[C@@H]1CCCN(C(C)C)C1 [Example 17]
Yes

Report whether reported IC50 is lower than 0.02 µM (strictly) for COc1cc(-c2cc3[nH]c(=O)n([C@@H]4CCCNC4)c3cc2C(F)(F)F)cn2ncnc12 [110 F]
Yes

Report whether reported IC50 is lower than 0.02 µM (strictly) for Cc1cc2c(cc1-c1cc(C)c3ncnn3c1)[nH]c(=O)n2[C@@H]1CCCN(CCC(F)(F)F)C1 [Example 29]
No

Report whether reported IC50 is lower than 0.02 µM (strictly) for COc1cc(-c2ccc3c(c2)[nH]c(=O)n3C2CCN(CC3CCOC3)CC2)cn2ncnc12 (centres unmarked) [Example 82]
No

Report whether reported IC50 is lower than 0.02 µM (strictly) for COc1cc(-c2cc3[nH]c(=O)n([C@@H]4CCCN(CC(C)C)C4)c3cc2C)cn2ncnc12 [Example 56]
Yes

Report whether reported IC50 is lower than 0.02 µM (strictly) for COc1cc(-c2cc3[nH]c(=O)n([C@H]4CCCN(C5CCC5)C4)c3cc2C(C)C)cn2ncnc12 [Example 122]
Yes
